Data provenance: PubChem BioAssay AID504832

assay: Primary qHTS for delayed death inhibitors of the malarial parasite plastid, 48 hour incubation; also: potency is read from the fitted curve at half-maximal effect; settings: P. falciparum luciferase growth in erythrocytes; series mostly up to 28.7 µM
The whole screen tested about 310,000 compounds, of which about 18,000 (5.8%) were called active. Inconclusive results (about 22%) are left out. This excerpt belongs to a sample that is enriched for actives.
observed property: Potency

Some entries whose results are on file:
mol=CCCNC(=O)c1ccc(N2CCC3(CC2)CC(c2cccc(Br)c2)=NO3)c(NC(=O)c2ccco2)c1 recorded_measurement="738 nM (active)"
mol=COCCNC(=O)c1ccc(N2CCC3(CC2)OCCO3)c([N+](=O)[O-])c1 recorded_measurement=inactive
mol=COc1cccc(NC(=O)C(=O)c2cn(CC(=O)N3CCOCC3)c3ccccc23)c1 recorded_measurement=inactive
mol=Cc1nn(CC(=O)NCCc2ccccc2)c(=O)c2cc3occc3n12 recorded_measurement=inactive

In the following, a different molecule is considered.
The molecule COC(=O)COc1ccc2c(=O)c(Oc3ccccc3Br)coc2c1 showed Potency equal to inactive
